B1: CPEB3 Ribozyme (parent)
chain: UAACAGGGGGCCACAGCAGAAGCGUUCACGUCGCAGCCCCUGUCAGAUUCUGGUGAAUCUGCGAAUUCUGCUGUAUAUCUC

- Variants of: B1
- Measurement protocol: self-cleavage, relative activity (ratio to wild type); higher = more cleavage; in vitro, sequencing
In this section we review reported self-cleavage values for a set of variants.
Enter a number only.

Field: example entries. Status: answers known.
[[record]]
entry_sequence = "UAACAGGGGGCCACAUCAGAAGCGUUCACGUCGCAGCCCCUGUCAGAUUCUGGGGAAUCUGCGAAUUCUGCUGUAUAUCUC [G16U U54G]"
experimental_endpoint = "self-cleavage"
numeric_readout = 0.55

[[record]]
entry_sequence = "UAACAGGGGGCCACAGCAGAAUCGUUCACGUCGCAGCCCCUGUCAGAUUCUGGUGAAUCUGCGAAUUCUGCUGUAUAUCUC [G22U]"
experimental_endpoint = "self-cleavage"
numeric_readout = 0.27

[[record]]
entry_sequence = "UAAAAGGGAGCCACAGCAGAAGCGUUCACGUCGCAGCCCCUGUCAGAUUCUGGUGAAUCUGCGAAUUCUGCUGUAUAUCUC [C4A G9A]"
experimental_endpoint = "self-cleavage"
numeric_readout = 0.64


Next item in the queue.
Request: Give its self-cleavage value. Item: UAGCAGGGGGCCACAGCAGAAGCGUUCACGUCGCAGCCCCAGUCAGAUUCUGGUGAAUCUGCGAAUUCUGCUGUAUAUCUC [A3G U41A]
Result: 0.3
